Experiment: Toxicity in Swiss mouse
Format: organism-based
Settings: in vivo
Observation Type: MTD (mg/kg/day)
Provide only the numeric value, understood in mg/kg/day.

input: Would you mind telling me what MTD value was observed for "NC(=O)c1ncn([C@@H]2O[C@H](COP(=O)([O-])[O-])[C@@H](O)[C@H]2O)n1.[Li+].[Li+]" ?
output: 150
